src = patent US20140357543A1

For each entry below, report its Remaining activity (%) immediately after preparation value.
- target.entity: T1, alcalase (trade name "Alcalase 2.5L", Novozymes) (UniProt P00780)
- T1 sequence (looked up): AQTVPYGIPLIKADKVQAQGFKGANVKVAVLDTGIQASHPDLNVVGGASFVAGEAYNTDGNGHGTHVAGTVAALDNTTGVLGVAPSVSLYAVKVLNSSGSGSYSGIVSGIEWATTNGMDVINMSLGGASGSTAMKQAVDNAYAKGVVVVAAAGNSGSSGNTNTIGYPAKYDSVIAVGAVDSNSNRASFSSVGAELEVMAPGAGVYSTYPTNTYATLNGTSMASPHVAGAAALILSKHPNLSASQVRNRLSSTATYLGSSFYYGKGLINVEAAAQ
- assay.overview: cell-based or functional assay
Give the value, in units of %, as a plain number.

IN: Return value of Remaining activity (%) immediately after preparation for input proteinaceous protease inhibitor of SEQ ID NO:3 (protein) TDTGDHHNQKTAWPELVGKSVEEAKKVILQDKSEAQIVVLPVGTIVTMEYRIDRVRLFVDSLDKIAQVPRVG , no commentary.
OUT: 7

IN: Return value of Remaining activity (%) immediately after preparation for input proteinaceous protease inhibitor of SEQ ID NO:4 (protein) TDTGDHHNQKTEWPELVGKSVEEAKKVILQDKSEAQIAVLPVGTIVTMEYRIDRVRLFVDSLDKIAQVPRVG , no commentary.
OUT: 2

IN: Return value of Remaining activity (%) immediately after preparation for input proteinaceous protease inhibitor of SEQ ID NO:17 (protein) TDTGDHHNQKTEWPELVGKSVEEAKKVILQDKSEAQIVVLPVGTIVTMEYRIERVRLFVDSLDKIAQVPRVG , no commentary.
OUT: 9

IN: Return value of Remaining activity (%) immediately after preparation for input proteinaceous protease inhibitor of SEQ ID NO:34 (protein) MSSVEKKPEGVNTGAGDRHNLKTEWPELVGKSVEEAKKVILQDKSEAQIIVLPVGTIVTMEYRADRVRLFVDKLDNIAQVPRVG , no commentary.
OUT: 1

IN: Return value of Remaining activity (%) immediately after preparation for input proteinaceous protease inhibitor (BC) of SEQ ID NO:1, wheat-derived subtilisin/chymotrypsin inhibitor (protein) TDTGDHHNQKTEWPELVGKSVEEAKKVILQDKSEAQIVVLPVGTIVTMEYRIDRVRLFVDSLDKIAQVPRVG , no commentary.
OUT: 0

IN: Return value of Remaining activity (%) immediately after preparation for input proteinaceous protease inhibitor of SEQ ID NO:35 (protein) MSSVEKKPEGVNTGAGDRHNLKTEWPELVGKSVEEAKKVILQDKSEAQIIVLPVGTIVTMEYRIARVRLFVDKLDNIAQVPRVG , no commentary.
OUT: 2

IN: Return value of Remaining activity (%) immediately after preparation for input proteinaceous protease inhibitor of SEQ ID NO:15 (protein) TDTGDHHNQKTEWPELVGKSVEEAKKVILQDKSEAQIVVLPVGTIVTMEYRADRVRLFVDSLDKIAQVPRVG , no commentary.
OUT: 3

IN: Return value of Remaining activity (%) immediately after preparation for input proteinaceous protease inhibitor of SEQ ID NO:12 (protein) TDTGDHHNQKTEWPELVGKSVEEAKKVILQDKSEAQIVVLPVGTIVTMEYAIDRVRLFVDSLDKIAQVPRVG , no commentary.
OUT: 2

IN: Return value of Remaining activity (%) immediately after preparation for input proteinaceous protease inhibitor of SEQ ID NO:36 (protein) MSSVEKKPEGVNTGAGDRHNLKTEWPELVGKSVEEAKKVILQDKSEAQIIVLPVGTIVTMEYRIDRVRLFVDKLDNIAQVPAVG , no commentary.
OUT: 1
